# System: P388
# procedureText: In vitro rate of inhibition of P388 tumor cell growth at 10E-6 mol/L
# Assay type: functional, Mus musculus
# measurementConditions: at 1 µM
# if value of Rate of inhibition reaches 4%, tag Yes; if it stays below, tag No

- molecule: "CCOC(=O)N1C(c2ccccc2)=NN=C(c2ccccc2)N1C(=O)OCC"
  testedSystem: "P388"
  category: "Yes"
- molecule: "CC1=NN(C(=O)Nc2cc(C)cc(C)c2)C(C)=NN1C(=O)Nc1cc(C)cc(C)c1"
  testedSystem: "P388"
  category: "Yes"
- molecule: "Clc1ccc(Cc2nnc(Cc3ccc(Cl)cc3)nn2)cc1"
  testedSystem: "P388"
  category: "Yes"
- molecule: "Clc1cccc(-c2nnc(-c3cccc(Cl)c3)nn2)c1"
  testedSystem: "P388"
  category: "Yes"
- molecule: "CCCCCOC(=O)N1N=C(CCC)N=NC1CCC (stereo unspecified)"
  testedSystem: "P388"
  category: "Yes"
- molecule: "CCOC(=O)c1cccc(NC(=O)N2N=C(C)N(C(=O)Nc3cccc(C(=O)OCC)c3)N=C2C)c1"
  testedSystem: "P388"
  category: "No"
- molecule: "COc1ccc(NC(=O)N2N=C(C)N(C(=O)Nc3ccc(OC)cc3)N=C2C)cc1"
  testedSystem: "P388"
  category: "Yes"
- molecule: "C1=CN(c2nnc(N3C=CN=CC3)nn2)CC=N1"
  testedSystem: "P388"
  category: "No"
- molecule: "CC(=O)N1NC(C)N(C(C)=O)NC1C (stereo unspecified)"
  testedSystem: "P388"
  category: "Yes"
- molecule: "CC1=NN(C(=O)Nc2cccc(Cl)c2)C(C)=NN1C(=O)Nc1cccc(Cl)c1"
  testedSystem: "P388"
  category: "Yes"
- molecule: "CCCC1=NN(C(=O)Nc2cccc(C)c2)C(CCC)=NN1C(=O)Nc1cccc(C)c1"
  testedSystem: "P388"
  category: "No"

----------
# Test system: P388
# procedureText: In vitro rate of inhibition of P388 tumor cell growth at 10E-6 mol/L
# Type: functional, Mus musculus
# measurementConditions: at 1 µM
# Lookup of reported Rate of inhibition keyed by entry
valueKind: Rate of inhibition (%)

- compound: "CCCC1=NNC(CCC)N=N1 (stereo not given)"
  valueKind: "Rate of inhibition"
  observedMeasurement: 0
- compound: "Cc1ccc(-c2nnc(-c3ccc(C)cc3)nn2)cc1"
  valueKind: "Rate of inhibition"
  observedMeasurement: 4.4
- compound: "c1ccc(Cc2nnc(Cc3ccccc3)nn2)cc1"
  valueKind: "Rate of inhibition"
  observedMeasurement: 18.5
- compound: "CCCOC(=O)N1C(c2ccccc2)=NN=C(c2ccccc2)N1C(=O)OCCC"
  valueKind: "Rate of inhibition"
  observedMeasurement: 4.5
- compound: "COC(=O)N1C(c2ccccc2)=NN=C(c2ccccc2)N1C(=O)OC"
  valueKind: "Rate of inhibition"
  observedMeasurement: 11.6
- compound: "CCCC1=NN(C(=O)OCCC(C)C)C(CCC)N=N1 (stereo not given)"
  valueKind: "Rate of inhibition"
  observedMeasurement: 6.9
- compound: "COC(=O)N1N=C(C)N=NC1C (stereo not given)"
  valueKind: "Rate of inhibition"
  observedMeasurement: 0
- compound: "Clc1ccccc1-c1nnc(-c2ccccc2Cl)nn1"
  valueKind: "Rate of inhibition"
  observedMeasurement: 5.6
- compound: "COc1cccc(NC(=O)N2N=C(C)N(C(=O)Nc3cccc(OC)c3)N=C2C)c1"
  valueKind: "Rate of inhibition"
  observedMeasurement: 93.8
- compound: "COc1ccccc1NC(=O)N1N=C(C)N(C(=O)Nc2ccccc2OC)N=C1C"
  valueKind: "Rate of inhibition"
  observedMeasurement: 1.6
- compound: "CCCC1=NN(C(=O)Nc2cccc(Cl)c2)C(CCC)=NN1C(=O)Nc1cccc(Cl)c1"
  valueKind: "Rate of inhibition"
  observedMeasurement: 0
- compound: "CC1=NN(C(=O)Nc2ccccc2)C(C)=NN1C(=O)Nc1ccccc1"
  valueKind: "Rate of inhibition"
  observedMeasurement: 90.6
- compound: "CC1=NN(C(=O)OCCC(C)C)C(C)N=N1 (stereo not given)"
  valueKind: "Rate of inhibition"
  observedMeasurement: 13.6
- compound: "CC1=NN(C(=O)NCc2ccccc2)C(C)=NN1C(=O)NCc1ccccc1"
  valueKind: "Rate of inhibition"
  observedMeasurement: 50.3
- compound: "CCC1NN(C(C)=O)C(CC)NN1C(C)=O (stereo not given)"
  valueKind: "Rate of inhibition"
  observedMeasurement: 0
- compound: "CC1=NN(C(=O)Nc2cccc(C(F)(F)F)c2)C(C)=NN1C(=O)Nc1cccc(C(F)(F)F)c1"
  valueKind: "Rate of inhibition"
  observedMeasurement: 9.5
- compound: "COc1ccccc1C(=O)N1N=C(c2ccccc2)NN=C1c1ccccc1"
  valueKind: "Rate of inhibition"
  observedMeasurement: 7.4
- compound: "CC1=NN(C(=O)Nc2cccc([N+](=O)[O-])c2)C(C)=NN1C(=O)Nc1cccc([N+](=O)[O-])c1"
  valueKind: "Rate of inhibition"
  observedMeasurement: 38.1
- compound: "CC1=NN(C(=O)Oc2ccccc2)C(C)N=N1 (stereo not given)"
  valueKind: "Rate of inhibition"
  observedMeasurement: 13.6
- compound: "CC1=NN(C(=O)Nc2ccccc2C)C(C)=NN1C(=O)Nc1ccccc1C"
  valueKind: "Rate of inhibition"
  observedMeasurement: 1.6
- compound: "CCOC(=O)c1ccc(NC(=O)N2N=C(C)N(C(=O)Nc3ccc(C(=O)OCC)cc3)N=C2C)cc1"
  valueKind: "Rate of inhibition"
  observedMeasurement: 1.6
- compound: "CC(C)C(=O)N1N=C(c2ccccc2)NN=C1c1ccccc1"
  valueKind: "Rate of inhibition"
  observedMeasurement: 52
- compound: "CCCCCOC(=O)N1N=C(C)N=NC1C (stereo not given)"
  valueKind: "Rate of inhibition"
  observedMeasurement: 7.3
- compound: "CC1=NN(C(=O)NC2CCCCC2)C(C)=NN1C(=O)NC1CCCCC1"
  valueKind: "Rate of inhibition"
  observedMeasurement: 0
- compound: "CCCC1=NN(C(=O)Nc2ccccc2)C(CCC)=NN1C(=O)Nc1ccccc1"
  valueKind: "Rate of inhibition"
  observedMeasurement: 22.8
- compound: "CCC1=NN(C(=O)Nc2cccc(C)c2)C(CC)=NN1C(=O)Nc1cccc(C)c1"
  valueKind: "Rate of inhibition"
  observedMeasurement: 0
- compound: "CC1=NN(C(=O)Nc2cccc(N(C)C)c2)C(C)=NN1C(=O)Nc1cccc(N(C)C)c1"
  valueKind: "Rate of inhibition"
  observedMeasurement: 89.8
- compound: "CC1=NN(C(=O)Nc2ccccc2Cl)C(C)=NN1C(=O)Nc1ccccc1Cl"
  valueKind: "Rate of inhibition"
  observedMeasurement: 1.6
- compound: "c1ccc(C2=NNC(c3ccccc3)=NN2)cc1"
  valueKind: "Rate of inhibition"
  observedMeasurement: 5.4
- compound: "CCCC1=NN(C(=O)OC2CCCCC2)C(CCC)N=N1 (stereo not given)"
  valueKind: "Rate of inhibition"
  observedMeasurement: 38.3
- compound: "FC(F)(F)c1ccc(-c2nnc(-c3ccc(C(F)(F)F)cc3)nn2)cc1"
  valueKind: "Rate of inhibition"
  observedMeasurement: 33
- compound: "CC1=NNC(C)N=N1 (stereo not given)"
  valueKind: "Rate of inhibition"
  observedMeasurement: 9.2
- compound: "CCCCC1NN(C(C)=O)C(CCCC)NN1C(C)=O (stereo not given)"
  valueKind: "Rate of inhibition"
  observedMeasurement: 0
- compound: "CC1=NN(C(=O)Nc2cccc(C)c2)C(C)=NN1C(=O)Nc1cccc(C)c1"
  valueKind: "Rate of inhibition"
  observedMeasurement: 98.4
- compound: "CC1=NN(C(=O)Nc2ccc(Cl)cc2)C(C)=NN1C(=O)Nc1ccc(Cl)cc1"
  valueKind: "Rate of inhibition"
  observedMeasurement: 1.9
- compound: "CC1=NN(C(=O)Nc2cccc3ccccc23)C(C)=NN1C(=O)Nc1cccc2ccccc12"
  valueKind: "Rate of inhibition"
  observedMeasurement: 0
- compound: "CCCCCCCCCCCCC/C=C/[C@@H](O)[C@H](CO)NC(C)=O"
  valueKind: "Rate of inhibition"
  observedMeasurement: 3.1
- compound: "CC1=NN(C(=O)OCc2ccccc2)C(C)N=N1 (stereo not given)"
  valueKind: "Rate of inhibition"
  observedMeasurement: 2
- compound: "CC1=NN(C(=O)Nc2cc(Cl)cc(Cl)c2)C(C)=NN1C(=O)Nc1cc(Cl)cc(Cl)c1"
  valueKind: "Rate of inhibition"
  observedMeasurement: 1.9
- compound: "CCCC1NN(C(C)=O)C(CCC)NN1C(C)=O (stereo not given)"
  valueKind: "Rate of inhibition"
  observedMeasurement: 3.2

----------
# System: P388
# procedureText: In vitro rate of inhibition of P388 tumor cell growth at 10E-4 mol/L
# Format: functional, Mus musculus
# measurementConditions: at 100 µM
# Lookup of reported Rate of inhibition keyed by entry

- molecule: "CCOC(=O)c1ccc(NC(=O)N2N=C(C)N(C(=O)Nc3ccc(C(=O)OCC)cc3)N=C2C)cc1"
  Rate of inhibition (%): 63.5
- molecule: "CCCC1=NN(C(=O)OC)C(CCC)N=N1 (stereo not given)"
  Rate of inhibition (%): 90.4
- molecule: "CC1=NN(C(=O)Nc2cc(Cl)cc(Cl)c2)C(C)=NN1C(=O)Nc1cc(Cl)cc(Cl)c1"
  Rate of inhibition (%): 30.6
- molecule: "CC1=NN(C(=O)Nc2cccc(Cl)c2)C(C)=NN1C(=O)Nc1cccc(Cl)c1"
  Rate of inhibition (%): 85.9
- molecule: "COC(=O)N1C(c2ccccc2)=NN=C(c2ccccc2)N1C(=O)OC"
  Rate of inhibition (%): 50.5
